# condition-label: in n-hexanol, 293.15 K
parameter: solubility (mole fraction)
Kindly provide the number alone.

Form: compound = "COc1ccc2[nH]cc(CCNC(C)=O)c2c1" ; solubility (mole fraction) = 0.00872

----------
# condition-label: in methanol, 303.15 K
parameter: solubility (mole fraction)
Answer with a number only.

compound "COc1ccc2[nH]cc(CCNC(C)=O)c2c1" , solubility (mole fraction) observed: 0.0462

----------
# condition-label: in n-hexanol, 298.15 K
parameter: solubility (mole fraction)
A bare number is all that is needed in reply.

Consider "COc1ccc2[nH]cc(CCNC(C)=O)c2c1" . Its measured solubility (mole fraction) is 0.0114

----------
# condition-label: in methanol, 278.15 K
parameter: solubility (mole fraction)
Lab note: jot down the number only; don't add units.

Item: "COc1ccc2[nH]cc(CCNC(C)=O)c2c1" | solubility (mole fraction): 0.0116

----------
# condition-label: in n-propanol, 278.15 K
parameter: solubility (mole fraction)

Value of measured solubility (mole fraction) for the entry "COc1ccc2[nH]cc(CCNC(C)=O)c2c1" : 0.00602

----------
# condition-label: in n-propanol, 318.15 K
parameter: solubility (mole fraction)

Documented solubility (mole fraction) of "COc1ccc2[nH]cc(CCNC(C)=O)c2c1" : 0.0538

----------
# condition-label: in methanol, 298.15 K
parameter: solubility (mole fraction)
Form field (numeric): enter value without unit.

Measured solubility (mole fraction), "COc1ccc2[nH]cc(CCNC(C)=O)c2c1" : 0.0357

----------
# condition-label: in isobutanol, 278.15 K
parameter: solubility (mole fraction)
Give a plain numeric answer without units written out.

# solubility (mole fraction) (compound: "COc1ccc2[nH]cc(CCNC(C)=O)c2c1" ) is 0.00406

----------
# condition-label: in methyl acetate, 283.15 K
parameter: solubility (mole fraction)
The reply should be a number, written without any unit.

Entry "COc1ccc2[nH]cc(CCNC(C)=O)c2c1" , solubility (mole fraction) reported as 0.00406

----------
# condition-label: in n-butanol, 293.15 K
parameter: solubility (mole fraction)

# solubility (mole fraction) of "COc1ccc2[nH]cc(CCNC(C)=O)c2c1" = 0.0118

----------
# condition-label: in isobutanol, 308.15 K
parameter: solubility (mole fraction)
Respond using a number only.

solubility (mole fraction) reported for this compound "COc1ccc2[nH]cc(CCNC(C)=O)c2c1" : 0.0212

----------
# condition-label: in n-hexanol, 318.15 K
parameter: solubility (mole fraction)
Answer with the value's number alone.

Summary for this compound, "COc1ccc2[nH]cc(CCNC(C)=O)c2c1" : solubility (mole fraction) is 0.0308

----------
# condition-label: in ethanol, 308.15 K
parameter: solubility (mole fraction)
Give your answer as a number; write no unit.

For "COc1ccc2[nH]cc(CCNC(C)=O)c2c1" the compound record lists solubility (mole fraction) as 0.0406

----------
# condition-label: in methyl acetate, 323.15 K
parameter: solubility (mole fraction)
Note: the reply should be a number with no unit written.

// recorded solubility (mole fraction) for "COc1ccc2[nH]cc(CCNC(C)=O)c2c1" : 0.0306

----------
# condition-label: in isobutanol, 313.15 K
parameter: solubility (mole fraction)

Summary for this molecule, "COc1ccc2[nH]cc(CCNC(C)=O)c2c1" : solubility (mole fraction) is 0.0276

----------
# condition-label: in n-pentanol, 278.15 K
parameter: solubility (mole fraction)
Respond numerically, and do not add a unit to the figure.

Recorded result, "COc1ccc2[nH]cc(CCNC(C)=O)c2c1" , solubility (mole fraction): 0.00515

----------
# condition-label: in methyl acetate, 278.15 K
parameter: solubility (mole fraction)
# print the numeric value only

Item: "COc1ccc2[nH]cc(CCNC(C)=O)c2c1" | solubility (mole fraction): 0.00303

----------
# condition-label: in methanol, 288.15 K
parameter: solubility (mole fraction)
In your answer, state the number alone without any accompanying words.

Reported solubility (mole fraction) for "COc1ccc2[nH]cc(CCNC(C)=O)c2c1" was 0.0211

----------
# condition-label: in methyl acetate, 298.15 K
parameter: solubility (mole fraction)
Lab note: jot down the number only; don't add units.

Entry "COc1ccc2[nH]cc(CCNC(C)=O)c2c1" ; solubility (mole fraction) = 0.0085

----------
# condition-label: in methanol, 283.15 K
parameter: solubility (mole fraction)
Returns: the value as a bare number; no unit string appended.

// recorded solubility (mole fraction) for "COc1ccc2[nH]cc(CCNC(C)=O)c2c1" : 0.0158

----------
# condition-label: in n-hexanol, 303.15 K
parameter: solubility (mole fraction)
Respond using a number only.

For "COc1ccc2[nH]cc(CCNC(C)=O)c2c1" the compound record lists solubility (mole fraction) as 0.0146

----------
# condition-label: in ethanol, 323.15 K
parameter: solubility (mole fraction)

Looking up "COc1ccc2[nH]cc(CCNC(C)=O)c2c1" , I see its solubility (mole fraction) listed as 0.0844

----------
# condition-label: in ethanol, 318.15 K
parameter: solubility (mole fraction)

For record "COc1ccc2[nH]cc(CCNC(C)=O)c2c1" the listed solubility (mole fraction) is 0.0665

----------
# condition-label: in isobutanol, 318.15 K
parameter: solubility (mole fraction)

Looking up "COc1ccc2[nH]cc(CCNC(C)=O)c2c1" , I see its solubility (mole fraction) listed as 0.0352

----------
# condition-label: in methanol, 318.15 K
parameter: solubility (mole fraction)
Just the number, please, no unit attached.

Reported solubility (mole fraction) for "COc1ccc2[nH]cc(CCNC(C)=O)c2c1" was 0.0963

----------
# condition-label: in ethanol, 313.15 K
parameter: solubility (mole fraction)
Respond with the number and no other words.

Memo: "COc1ccc2[nH]cc(CCNC(C)=O)c2c1" , reported solubility (mole fraction): 0.0527

----------
# condition-label: in n-propanol, 313.15 K
parameter: solubility (mole fraction)
Field format: numeric only.

Value of measured solubility (mole fraction) for the entry "COc1ccc2[nH]cc(CCNC(C)=O)c2c1" : 0.0418

----------
# condition-label: in methyl acetate, 288.15 K
parameter: solubility (mole fraction)
Answer with a number only.

Consider "COc1ccc2[nH]cc(CCNC(C)=O)c2c1" . Its measured solubility (mole fraction) is 0.00531

----------
# condition-label: in n-pentanol, 283.15 K
parameter: solubility (mole fraction)
I only need the number, thanks.

Lab note: measured solubility (mole fraction) of "COc1ccc2[nH]cc(CCNC(C)=O)c2c1" was 0.00671

----------
# condition-label: in isobutanol, 323.15 K
parameter: solubility (mole fraction)
# answer = number (no unit)

The recorded solubility (mole fraction) for "COc1ccc2[nH]cc(CCNC(C)=O)c2c1" is 0.0441

----------
# condition-label: in methanol, 308.15 K
parameter: solubility (mole fraction)
Give a plain numeric answer without units written out.

The compound "COc1ccc2[nH]cc(CCNC(C)=O)c2c1" showed solubility (mole fraction) equal to 0.0594

----------
# condition-label: in n-pentanol, 298.15 K
parameter: solubility (mole fraction)
Give only the figure.

So, "COc1ccc2[nH]cc(CCNC(C)=O)c2c1" ? Its solubility (mole fraction) was 0.0145

----------
# condition-label: in n-propanol, 323.15 K
parameter: solubility (mole fraction)
Could you keep your reply to the number by itself?

The reported solubility (mole fraction) of the compound "COc1ccc2[nH]cc(CCNC(C)=O)c2c1" was 0.0701

----------
# condition-label: in ethanol, 288.15 K
parameter: solubility (mole fraction)

Memo: "COc1ccc2[nH]cc(CCNC(C)=O)c2c1" , reported solubility (mole fraction): 0.0151

----------
# condition-label: in n-pentanol, 323.15 K
parameter: solubility (mole fraction)
Lab note: record just the number, no unit beside it.

// solubility (mole fraction) lookup, compound = "COc1ccc2[nH]cc(CCNC(C)=O)c2c1" , result: 0.0444

----------
# condition-label: in n-butanol, 318.15 K
parameter: solubility (mole fraction)
Respond with the number and no other words.

Item: "COc1ccc2[nH]cc(CCNC(C)=O)c2c1" | solubility (mole fraction): 0.0425

----------
# condition-label: in n-hexanol, 278.15 K
parameter: solubility (mole fraction)
Number only, please.

# solubility (mole fraction) (molecule: "COc1ccc2[nH]cc(CCNC(C)=O)c2c1" ) is 0.0038

----------
# condition-label: in methyl acetate, 318.15 K
parameter: solubility (mole fraction)
Give the figure only, with no unit attached.

Form field solubility (mole fraction), entry "COc1ccc2[nH]cc(CCNC(C)=O)c2c1" : 0.0244

----------
# condition-label: in ethanol, 298.15 K
parameter: solubility (mole fraction)
Form: value (number only, do not type unit).

The recorded solubility (mole fraction) for entry "COc1ccc2[nH]cc(CCNC(C)=O)c2c1" equals 0.0254

----------
# condition-label: in n-propanol, 288.15 K
parameter: solubility (mole fraction)
Please give the numeric answer without any surrounding text.

solubility (mole fraction) reading for "COc1ccc2[nH]cc(CCNC(C)=O)c2c1" : 0.0108

Reference for the values: BigSolDB 2.1
